# experimental.system: human TRPA1 receptor (Homo sapiens)
# Sequence (O75762 whole entry): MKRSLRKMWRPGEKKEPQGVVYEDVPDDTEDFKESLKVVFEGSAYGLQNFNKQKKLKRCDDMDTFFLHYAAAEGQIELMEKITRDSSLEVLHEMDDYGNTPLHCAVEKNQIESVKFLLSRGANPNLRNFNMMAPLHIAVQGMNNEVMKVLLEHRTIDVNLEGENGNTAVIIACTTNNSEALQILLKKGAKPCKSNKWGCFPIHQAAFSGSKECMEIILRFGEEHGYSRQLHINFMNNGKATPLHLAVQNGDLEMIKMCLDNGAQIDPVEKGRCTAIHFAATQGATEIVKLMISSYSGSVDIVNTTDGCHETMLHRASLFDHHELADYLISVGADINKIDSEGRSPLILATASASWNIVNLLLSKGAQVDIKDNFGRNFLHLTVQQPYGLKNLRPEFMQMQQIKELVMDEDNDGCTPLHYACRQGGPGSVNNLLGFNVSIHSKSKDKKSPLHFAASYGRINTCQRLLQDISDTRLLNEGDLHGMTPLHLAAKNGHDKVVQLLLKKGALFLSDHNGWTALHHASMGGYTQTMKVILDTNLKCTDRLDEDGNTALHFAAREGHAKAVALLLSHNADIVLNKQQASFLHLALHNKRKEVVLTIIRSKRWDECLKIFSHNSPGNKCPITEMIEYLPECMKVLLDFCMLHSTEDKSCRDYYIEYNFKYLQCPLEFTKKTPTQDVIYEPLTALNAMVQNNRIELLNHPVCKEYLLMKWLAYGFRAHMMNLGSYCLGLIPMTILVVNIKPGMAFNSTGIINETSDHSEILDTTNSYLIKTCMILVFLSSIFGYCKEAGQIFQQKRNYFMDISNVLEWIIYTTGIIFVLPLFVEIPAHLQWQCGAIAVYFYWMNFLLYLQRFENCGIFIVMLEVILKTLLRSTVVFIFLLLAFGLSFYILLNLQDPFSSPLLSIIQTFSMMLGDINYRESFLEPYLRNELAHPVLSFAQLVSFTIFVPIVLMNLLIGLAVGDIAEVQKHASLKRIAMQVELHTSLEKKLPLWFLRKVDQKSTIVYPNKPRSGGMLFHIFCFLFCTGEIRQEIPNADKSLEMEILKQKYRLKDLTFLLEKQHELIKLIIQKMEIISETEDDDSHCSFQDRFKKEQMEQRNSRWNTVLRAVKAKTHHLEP
# run.description: Inhibition of AITC induced cellular uptake of radioactive calcium in human TRPA1 expressing CHO cells
# settings: read-out: hTRPA1 IC50 values
observable: pIC50
Value format note: pIC50 is -log10 of concentration (mol/L); just state the number.

Challenge: For the molecule Cn1c(=O)c2c(CC(=O)/N=c3\scc(-c4ccc(F)c(C(F)(F)F)c4F)n3COP(=O)(O)O)csc2n(C)c1=O [Compound 96] , give its reported pIC50.
Response given: 6.25
